Biological target: T1, full-length untagged human GPNMB expressed on cells (human, UniProt Q14956 23-572)
T1 sequence: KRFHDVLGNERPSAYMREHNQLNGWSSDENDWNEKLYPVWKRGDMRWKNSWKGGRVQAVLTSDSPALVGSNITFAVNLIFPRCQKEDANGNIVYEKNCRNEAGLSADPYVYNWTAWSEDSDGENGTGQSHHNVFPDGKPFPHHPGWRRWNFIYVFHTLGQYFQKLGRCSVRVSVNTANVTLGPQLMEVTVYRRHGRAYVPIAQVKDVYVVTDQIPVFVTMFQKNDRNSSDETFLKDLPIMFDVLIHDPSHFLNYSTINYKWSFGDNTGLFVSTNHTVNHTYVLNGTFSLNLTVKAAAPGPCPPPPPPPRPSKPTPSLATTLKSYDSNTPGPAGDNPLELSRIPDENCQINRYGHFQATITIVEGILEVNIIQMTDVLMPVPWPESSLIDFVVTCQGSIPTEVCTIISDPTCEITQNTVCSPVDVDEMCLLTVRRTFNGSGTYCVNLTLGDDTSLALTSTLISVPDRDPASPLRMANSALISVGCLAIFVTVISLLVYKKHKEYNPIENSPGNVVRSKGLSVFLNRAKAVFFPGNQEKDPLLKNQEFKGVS
Experiment: cell-based or functional assay
Consider the cut-off 1 nM. If the recorded EC50 PDL1 is strictly smaller, the label is yes (1); if not, the label is no (0).

Solved entries:
anti-GPNMB antibody GPN-94 (antibody, V domains shown) VH: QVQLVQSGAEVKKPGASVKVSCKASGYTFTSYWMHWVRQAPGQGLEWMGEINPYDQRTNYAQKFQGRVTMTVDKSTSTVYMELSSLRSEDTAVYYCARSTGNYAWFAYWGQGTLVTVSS VL: DIVMTQSPDSLAVSLGERATINCKTSQDVSPSLAWYQQKPGQPPKLLIYSASKRYTGVPDRFSGSGSGTDFTLTISSLQAEDVAVYYCQQHYSIPLTFGGGTKVEIK
no (0)
anti-GPNMB antibody GPN-96 (antibody, V domains shown) VH: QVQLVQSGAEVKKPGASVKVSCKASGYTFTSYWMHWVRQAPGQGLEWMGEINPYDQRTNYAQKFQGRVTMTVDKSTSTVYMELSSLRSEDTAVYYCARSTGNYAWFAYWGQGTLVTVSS VL: DIVMTQSPDSLAVSLGERATINCKASQDVSPSLAWYQQKPGQPPKLLIYRASYRYTGVPDRFSGSGSGTDFTLTISSLQAEDVAVYYCQQHYSIPLTFGGGTKVEIK
yes (1)
anti-GPNMB antibody GPN-82 (antibody, V domains shown) VH: QVQLQESGPGLVKPSETLSLTCTVSGISITTGNYRWSWIRQPPGKGLEWIGYIYYSGTIIYNPSLKSRVTITRDTSKNQFSLELSSVTAADTAVYYCARDLTHWYFDVWGQGTLVTVSS VL: DIVMTQSPDSLAVSLGERATINCKSSRSVDYYGIGFLNWYQQKPGQPPKLLIYATSTQGSGVPDRFSGSGSGTDFTLTISSLQAEDVAVYYCQQQKEVPPTFGGGTKVEIK
no (0)
anti-GPNMB antibody GPN-87 (antibody, V domains shown) VH: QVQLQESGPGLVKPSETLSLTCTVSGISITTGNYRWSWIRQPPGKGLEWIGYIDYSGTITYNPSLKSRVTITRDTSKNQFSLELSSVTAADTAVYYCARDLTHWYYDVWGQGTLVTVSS VL: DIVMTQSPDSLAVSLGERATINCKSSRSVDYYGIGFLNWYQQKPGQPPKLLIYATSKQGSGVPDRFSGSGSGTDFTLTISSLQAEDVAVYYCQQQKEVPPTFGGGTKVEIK
no (0)

Consider the additional binder presented here.
Req: Is EC50 PDL1 of anti-GPNMB antibody GPN-85 (antibody, V domains shown) VH: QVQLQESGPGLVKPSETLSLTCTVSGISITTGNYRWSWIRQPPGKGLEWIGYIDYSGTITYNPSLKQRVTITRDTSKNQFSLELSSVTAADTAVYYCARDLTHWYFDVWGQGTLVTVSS VL: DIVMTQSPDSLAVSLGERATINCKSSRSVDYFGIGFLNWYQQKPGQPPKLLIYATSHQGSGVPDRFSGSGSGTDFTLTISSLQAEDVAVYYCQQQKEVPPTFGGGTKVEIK strictly below 1 nM?
Resp: yes (1)

Provenance of the data: patent US20250270343A1
